# Tested on: NCI/ADR-RES
# ASSAY TEXT: Activity in Pgp overexpressing cell line NCI/ADR-RES
# Format: cell-based
# EXPERIMENTAL CONDITIONS: Homo sapiens; Pgp overexpressing cell line NCI/ADR-RES; read-out: NCI/ADR-RES IC50 ± SD
REPORTED ENDPOINT: IC50 (nM)
Report the value in nM with no unit label.

Here's what some known entries look like.
1) Cc1nc(N(C)c2ccc3c(ccn3C)c2)c2ncccc2n1 [Compound 7]
3
2) COc1cccc2cc(N(C)c3nc(C)nc4cccnc34)ccc12 [Compound 4]
4.5
3) Cc1nc(N(C)c2ccc3ccn(C)c3c2)c2ncccc2n1 [Compound 8]
260
4) COc1ccc2c(c1)CCCN2c1nc(C)nc2cccnc12 [Compound 5]
7.3
5) Cc1nc(N(C)c2ccc3occc3c2)c2ncccc2n1 [Compound 6]
24

Note down IC50 recorded for COc1ccc(N(C)c2nc(C)nc3cccnc23)cc1 [Compound 2] 4

Note down IC50 recorded for Cc1nc(N(C)c2ccc3c(C)cn(C)c3c2)c2ncccc2n1 [Compound 9] 24

Note down IC50 recorded for CSc1ccc(N(C)c2nc(C)nc3cccnc23)cc1 [Compound 3] 4.3

###

# Test system: OVCAR-8
# ASSAY TEXT: Activity in parental cell line OVCAR-8
# Type: cell-based, human
# EXPERIMENTAL CONDITIONS: Homo sapiens, read-out: OVCAR-8 IC50 ± SD
Threshold 20 nM. IC50 below it: Satisfied. IC50 at it or above: Not satisfied.

Record excerpt, results attached:
1) Cc1nc(N(C)c2ccc3c(ccn3C)c2)c2ncccc2n1
Satisfied
2) Cc1nc(N(C)c2ccc3c(C)cn(C)c3c2)c2ncccc2n1
Not satisfied
3) CSc1ccc(N(C)c2nc(C)nc3cccnc23)cc1
Not satisfied
4) Cc1nc(N(C)c2ccc3ccn(C)c3c2)c2ncccc2n1
Not satisfied
5) Cc1nc(N(C)c2ccc3occc3c2)c2ncccc2n1
Not satisfied

hey, is IC50 for COc1ccc(N(C)c2nc(C)nc3cccnc23)cc1 lower than 20 nM or not? Satisfied

hey, is IC50 for COc1cccc2cc(N(C)c3nc(C)nc4cccnc34)ccc12 lower than 20 nM or not? Satisfied

hey, is IC50 for COc1ccc2c(c1)CCCN2c1nc(C)nc2cccnc12 lower than 20 nM or not? Satisfied

hey, is IC50 for CC(=O)O[C@H]1C(=O)[C@@]2(C)[C@H]([C@H](OC(=O)c3ccccc3)[C@]3(O)C[C@H](OC(=O)[C@H](O)[C@@H](NC(=O)c4ccccc4)c4ccccc4)C(C)=C1C3(C)C)[C@]1(OC(C)=O)CO[C@@H]1C[C@@H]2O [Paclitaxel, paclitaxel, reference compound] lower than 20 nM or not? Satisfied

###

# Test system: tubulin (colchicine site)
# ASSAY TEXT: Inhibition of colchicine binding
# EXPERIMENTAL CONDITIONS: 0.5 μM inhibitor
We begin with a simple list: items and their reported Inhibition of colchicine binding % inhibition ± SD.
Report the value in % with no unit label.

Here's what some known entries look like.
1. Cc1nc(N(C)c2ccc3c(C)cn(C)c3c2)c2ncccc2n1 [Compound 9]
52
2. Cc1nc(N(C)c2ccc3c(ccn3C)c2)c2ncccc2n1 [Compound 7]
81
3. COc1ccc(/C=C\c2cc(OC)c(OC)c(OC)c2)cc1O [CA4, combretastatin A4, reference compound]
83
4. COc1ccc2c(c1)CCCN2c1nc(C)nc2cccnc12 [Compound 5]
81
5. CSc1ccc(N(C)c2nc(C)nc3cccnc23)cc1 [Compound 3]
90

Now turn to the next compound.
Note down Inhibition of colchicine binding % inhibition ± SD recorded for COc1ccc(N(C)c2nc(C)nc3cccnc23)cc1 [Compound 2] 84

###

# Tested on: MCF-7 breast cancer cell line
# ASSAY TEXT: MCF-7 cytotoxicity
# Assay type: cell-based
# EXPERIMENTAL CONDITIONS: MCF-7 cells; read-out: MCF-7 cytotoxicity IC50 ± SD
REPORTED ENDPOINT: IC50 (nM)
Report the value in nM with no unit label.

GET IC50 where system = MCF-7 breast cancer cell line and item = COc1ccc(/C=C\c2cc(OC)c(OC)c(OC)c2)cc1O [CA4, combretastatin A4, reference compound] 9

###

# Test system: tubulin (colchicine site)
# ASSAY TEXT: Inhibition of colchicine binding
# EXPERIMENTAL CONDITIONS: 5 μM inhibitor
We begin with a simple list: items and their reported Inhibition of colchicine binding % inhibition ± SD.
Report the value in % with no unit label.

Here's what some known entries look like.
1) Cc1nc(N(C)c2ccc3c(ccn3C)c2)c2ncccc2n1 [Compound 7]
97
2) COc1ccc(/C=C\c2cc(OC)c(OC)c(OC)c2)cc1O [CA4, combretastatin A4, reference compound]
98
3) CSc1ccc(N(C)c2nc(C)nc3cccnc23)cc1 [Compound 3]
99
4) Cc1nc(N(C)c2ccc3ccn(C)c3c2)c2ncccc2n1 [Compound 8]
66
5) Cc1nc(N(C)c2ccc3c(C)cn(C)c3c2)c2ncccc2n1 [Compound 9]
93
6) COc1ccc(N(C)c2nc(C)nc3cccnc23)cc1 [Compound 2]
95

GET Inhibition of colchicine binding % inhibition ± SD where system = tubulin (colchicine site) and item = COc1ccc2c(c1)CCCN2c1nc(C)nc2cccnc12 [Compound 5] 98

GET Inhibition of colchicine binding % inhibition ± SD where system = tubulin (colchicine site) and item = Cc1nc(N(C)c2ccc3occc3c2)c2ncccc2n1 [Compound 6] 85

Source listed as patent US20240350496A1.
